System: human MMP-12 (human, UniProt P39900 106-470, limits assumed)
Sequence (P39900 106-470 limits assumed): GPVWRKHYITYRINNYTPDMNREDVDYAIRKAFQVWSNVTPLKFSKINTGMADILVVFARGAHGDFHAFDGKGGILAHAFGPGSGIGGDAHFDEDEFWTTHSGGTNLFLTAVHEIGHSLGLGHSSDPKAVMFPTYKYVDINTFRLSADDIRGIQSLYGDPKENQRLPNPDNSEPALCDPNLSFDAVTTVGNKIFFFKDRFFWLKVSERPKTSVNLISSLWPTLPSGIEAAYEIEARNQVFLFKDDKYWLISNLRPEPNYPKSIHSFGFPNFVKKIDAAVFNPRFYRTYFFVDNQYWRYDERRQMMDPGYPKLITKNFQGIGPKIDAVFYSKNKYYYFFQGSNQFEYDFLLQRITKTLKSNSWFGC
Assay Method Text: cell-based or functional assay

Binder: 539B-M0065-E12 (Fab, V domains shown) VH: EVQLLESGGGLVQPGGSLRLSCAASGFTFSWYNMHWVRQAPGKGLEWVSGISPSGGNTMYADSVKGRFTISRDNSKNTLYLQMNSLRAEDTAVYYCAKDIRGAYSSGLFDYWGRGTLVTVSS VL: DIQMTQSPSSLSASVGDRVTITCRANQSIYTYLNWYQQKPGKAPELLIYAASSLQSGVPSRFSGSGSGTDFTLTISSLQPEDFATYYCQQAGIFGQGTKLEIK
IC50hu (nM): 1.4

The origin of these recorded values is patent US8114968.
